Entries and their growth values follow.
- Tested on: SNB-19 CNS
- Protocol summary: NCI-60 one-dose screen, 48 h (100 = growth as untreated, 0 = no growth, -100 = all killed)
- Measurement conditions: 10 µM unless noted
The panel holds about 83,000 compounds, 20% with a hit somewhere; the sample as a whole holds those more often.
The answer is to be given in %; state only the numeric part.

Recorded growth, per entry:
# Compound, Endpoint unit, growth
rows = [
    ("Brc1ccc2c(c1)c(-c1nc(-c3c[nH]c4ncccc34)cs1)cn2CCN1CCOCC1", "%", 71.6),
    ("CC12CCC3C(C=CC4=C(N)C(=O)CCC43C)C1CCC2=O (stereo not given)", "%", 103),
    ("CCCCCCC(=O)NC1=C(N2CC2)C(=O)C(NC(=O)CCCCCC)=C(N2CC2)C1=O", "%", 60.6),
    ("Clc1ccc(N2COOC3(OOC2)C2CC4CC(C2)CC3C4)cc1", "%", 74.3),
    ("CCCC[C@H](NC(=O)[C@H]1CCCN1C)C(=O)N(C)[C@H](C[C@@H](OC(C)=O)c1nc(C(=O)N[C@@H](Cc2ccccc2)C[C@H](C)C(=O)OCC)cs1)C(C)C", "%", 38.4),
    ("O=C1C(=Cc2cn(Cc3ccccc3)c3ccccc23)C(=O)N(Cc2ccccc2)C(=O)N1Cc1ccccc1", "%", 87.1),
    ("CCOC(=O)C(Cc1ccc(N(CCCl)CCCl)cc1)NC(=O)C(CC(C)C)NC(C)=O (stereo not given)", "%", 57.6),
    ("CC(=O)O[C@@H]1CC[C@]2(C)[C@H]3CC[C@]4(C)C(=O)CC[C@H]4[C@@H]3C[C@@H]3SC(N)=N[C@@]32C1", "%", 54.7),
    ("COC(=O)[C@H](Cc1ccccc1)NC(=O)c1csc([C@@H](C[C@H](C(C)C)N(C)C(=O)[C@@H](NC(=O)[C@H]2CCCCN2C)C2CC2)OC(C)=O)n1", "%", 69.6),
    ("CCOc1ccc(/C=C/[N+](=O)[O-])cc1", "%", 91.2),
]

Measured growth, `Clc1cccc(Cl)c1Cl` : 118

Form field growth, entry `CCOC(=O)[C@@H](C)C[C@H](Cc1ccccc1)NC(=O)c1csc([C@@H](C[C@H](C(C)C)N(C)C(=O)CNC(=O)[C@H]2CCCCN2C)OC(C)=O)n1` : 17.4

compound `CC[C@H](C)[C@H](NC(=O)C12CC(NC(C)=O)(C1)C2)C(=O)N(C)[C@H](C[C@@H](OC(C)=O)c1nc(C(=O)N[C@@H](Cc2ccccc2)C[C@H](C)C(=O)OC)cs1)C(C)C` , growth observed: 50.9

----------
- Test system: HOP-92 NSCLC
- Protocol summary: NCI-60 one-dose screen, 48 h (100 = growth as untreated, 0 = no growth, -100 = all killed)
- Measurement conditions: 10 µM unless noted
This is part of a sample that, as a whole, favours compounds with a hit. Of some 83,000 tested, about 20% had one in any assay.
Experimental endpoint: growth (%)
Reply with just the number (in %).

# Compound, Endpoint unit, growth
records = [
    ("Cc1c(O)c(CN(CCCl)CCCl)cc(CN(CCCl)CCCl)c1O", "%", 47.3),
]

Item: `CC(=O)Nc1nc2c(s1)CC[C@@]1(C)C2=CC[C@H]2[C@@H]3CC[C@H](O)[C@@]3(C)CC[C@@H]21` | System: HOP-92 NSCLC | growth: 84.7

Observed growth, HOP-92 NSCLC, `COc1ccc(N(CC(=O)NCCC[Te]c2ccccc2)C(=O)CNC(=O)OC(C)(C)C)cc1` : -19.9

CC(C)COC(C[N+](=O)[O-])C(Cl)(Cl)Cl (centres undefined) tested on HOP-92 NSCLC gave growth: 102

HOP-92 NSCLC data for O=C1Nc2ccccc2C2c3cccn3-c3ccccc3CN12 (centres undefined) ; its growth: 29.7

----------
// values below are reported growth
- Tested on: SF-268 CNS
- Protocol summary: NCI-60 one-dose screen, 48 h (100 = growth as untreated, 0 = no growth, -100 = all killed)
- Measurement conditions: 10 µM unless noted
The panel holds about 83,000 compounds, 20% with a hit somewhere; the sample as a whole holds those more often. Calls of active or inactive are those of the source. The calls were made as follows: active = growth percent below 10; inactive = the rest.

Example compounds with recorded growth:
# Compound, growth
measured = [
    ("Cc1cc(C)cc(Nc2nc3c(s2)CC[C@@]2(C)C3=CC[C@@H]3[C@@H]2CC[C@]2(C)C(=O)CC[C@@H]32)c1", "67.4% (inactive)"),
    ("COC(=O)[C@@H](C)C[C@H](Cc1ccccc1)NC(=O)c1csc([C@@H](C[C@H](C(C)C)N(C)C(=O)[C@@H](NC(=O)[C@H]2CCCCN2C)C2CCCCC2)OC(C)=O)n1", "8.92% (active)"),
]

Looking up `O=C(CCCC1CCCCC1)OCC(Cl)(Cl)Cl` , I see its growth listed as 97.1% (inactive)

In plain terms, `C[C@]12CCc3sc(-c4ccccc4O)nc3C1=CC[C@@H]1[C@@H]2CC[C@]2(C)C(=O)CC[C@@H]12` has a documented growth of 100% (inactive)

----------
- System: HCT-15 colon
- Protocol summary: NCI-60 one-dose screen, 48 h (100 = growth as untreated, 0 = no growth, -100 = all killed)
- Measurement conditions: 10 µM unless noted
About 83,000 compounds went through this panel and 20% of them were active in at least one assay; those are over-represented in the sample as a whole.
// growth lookup, one value per entry
Write the answer as a number in %, unit excluded.

Please review the following examples before continuing.
# Compound, Observed value
records = [
    ("CCCCCC1(CCBr)C(=O)NC(=O)NC1=O", 97.7),
    ("COC(=O)[C@@]1(C)CC[C@]2(C)CC[C@]3(C)C4=CC(=O)c5c(cc(O)c(O)c5C)[C@]4(C)CC[C@@]3(C)[C@@H]2C1", 36.9),
    ("CC(CC1CCCCC1)NCc1ccccc1 (stereo not given)", 94.4),
]

growth reading for `COc1ccc2c(c1)c(-c1nc(-c3c[nH]c4ncccc34)cs1)cn2CCCCN1CCCCC1` : -76.7

// growth lookup, compound = `Clc1cccc(NCOOC2(OOCNc3cccc(Cl)c3)CCCCCC2)c1` , result: 93.2

----------
- Test system: LOX IMVI melanoma
- Protocol summary: NCI-60 one-dose screen, 48 h (100 = growth as untreated, 0 = no growth, -100 = all killed)
- Measurement conditions: 10 µM unless noted
Compounds without any hit were thinned out: in the full panel of roughly 83,000, 20% have a hit.
Experimental endpoint: growth (%)
Supply the numeric figure in %, leaving out any unit text.

Consider the worked cases shown below.
# Compound, growth (%)
measured = [
    ("N#CC1(c2ccccc2)CCN(Cc2ccccc2)CC1", 102),
    ("COc1ccc(C(=O)c2cc(OC)c(OC)c(OC)c2)cc1OC(C)=O", 19.7),
]

Record CC(=O)OC1C(OC/C2=C/C3[C@@H](C(C)C)CC=C(C)[C@@H]3CC(OC(=O)/C=C/c3cn(C)cn3)[C@]3(C)C=C[C@@]2(O)O3)OCC(O)C1O (some centres undefined) . Reported growth: 35.2

Sample NC(=O)CNc1ccc([As]=[As]c2ccc(NCC(N)=O)cc2)cc1 (centres undefined) ; growth observed: 26.2

The recorded growth for entry `C[C@@]12CC[C@@H](O)C[C@@H]1CC[C@H]1[C@H]2CC[C@@]2(C)[C@H](c3ccc(=O)oc3)CC[C@@]12O` equals -74.9

Input O=C(CC1(O)C(=O)N(Cc2ccccc2)c2ccc(Br)cc21)c1ccc(C(=O)NCC2CCC3(CC2)OOC2(CCCCC2)OO3)cc1 (centres undefined) . Output growth: -79.7

Consider `COc1ccc2c(c1)c(-c1nc(-c3c[nH]c4ncccc34)cs1)cn2CCN1CCOCC1` . Its measured growth is 45.4

----------
Examples of compounds with documented growth follow.
- System: CCRF-CEM leukemia
- Protocol summary: NCI-60 one-dose screen, 48 h (100 = growth as untreated, 0 = no growth, -100 = all killed)
- Measurement conditions: 10 µM unless noted
The panel holds about 83,000 compounds, 20% with a hit somewhere; the sample as a whole holds those more often.
Provide the reading as a plain figure in %.

# Compound, growth (%)
rows = [
    ("COc1cc(/C=C\\c2cc(OC)c(OC)c(OC)c2)cc(NS(=O)(=O)c2cccc(Cl)c2)c1OC", 9.72),
    ("COC(=O)N[C@H]1CCc2c(Br)c(OC)c(OC)c(OC)c2-c2ccc(SC)c(=O)cc21", 3.65),
    ("O=C1NC(=O)C(=Cc2cccn2CCCCCn2c3ccccc3c(=O)c3ccccc32)C(=O)N1", 100),
]

# growth (compound: CCC(CC)CC1(C)CC2(C)CCOC2OO1 (centres undefined) ) is 103

growth reading for `COc1cc(/C=C/[N+](=O)[O-])cc(OC)c1` : -7.03

compound `COC(=O)[C@@H](C)C[C@H](Cc1ccccc1)NC(=O)c1nc([C@@H](C[C@H](C(C)C)N(C)C(=O)[C@@H](NC(=O)[C@H]2CCCCN2C)C(C)C)OC(C)=O)sc1C(C)C` , growth observed: 7.31
